Tgt: SULT1E1 (Homo sapiens, UniProt P49888)
Construct: E. coli codon-optimized SULT1E1 coding region inserted into the PreScission Protease cleavage site; His/GST/MBP triple tag (N, cleaved yes); made in house; host or cells: E. coli BL21(DE3)
Sequence (P49888 1-294): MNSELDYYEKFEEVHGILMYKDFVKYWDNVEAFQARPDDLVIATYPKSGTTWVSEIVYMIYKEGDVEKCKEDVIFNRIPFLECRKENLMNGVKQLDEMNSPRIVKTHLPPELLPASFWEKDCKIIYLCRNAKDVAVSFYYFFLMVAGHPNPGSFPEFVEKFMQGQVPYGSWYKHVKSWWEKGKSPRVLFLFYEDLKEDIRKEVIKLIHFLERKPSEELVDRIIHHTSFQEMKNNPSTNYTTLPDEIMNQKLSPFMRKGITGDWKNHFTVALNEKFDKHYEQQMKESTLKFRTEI
Method summary: Equilibrium binding studies (SULT1E1 intrinsic fluorescence)
Assay context: OH-PCB2 7.0 μM (higher partner concentration), PAP 0.30 mM; pH 7.4, 25 °C; spread = one SD; read-out: Kd, ligand binding to enzyme species E⋅PAP⋅OH-PCB2
Quantity: Kd
Answer format: value, then unit.

Req: Item C[C@]12CC[C@@H]3c4ccc(O)cc4CC[C@H]3[C@@H]1CC[C@@H]2O [E2, 17-Beta-estradiol] has what recorded Kd?
Resp: 1.1 nM
